study.system: T1, human MCSP(D3 domain)-avi-his (human, UniProt Q6UVK1 1582-2224)
T1 construct: Recombinant D3 domain of MCSP (CSPG4) with avi and his tags; also called hu-MCSP(D3 domain)-avi-his; human MCSP antigen
T1 sequence: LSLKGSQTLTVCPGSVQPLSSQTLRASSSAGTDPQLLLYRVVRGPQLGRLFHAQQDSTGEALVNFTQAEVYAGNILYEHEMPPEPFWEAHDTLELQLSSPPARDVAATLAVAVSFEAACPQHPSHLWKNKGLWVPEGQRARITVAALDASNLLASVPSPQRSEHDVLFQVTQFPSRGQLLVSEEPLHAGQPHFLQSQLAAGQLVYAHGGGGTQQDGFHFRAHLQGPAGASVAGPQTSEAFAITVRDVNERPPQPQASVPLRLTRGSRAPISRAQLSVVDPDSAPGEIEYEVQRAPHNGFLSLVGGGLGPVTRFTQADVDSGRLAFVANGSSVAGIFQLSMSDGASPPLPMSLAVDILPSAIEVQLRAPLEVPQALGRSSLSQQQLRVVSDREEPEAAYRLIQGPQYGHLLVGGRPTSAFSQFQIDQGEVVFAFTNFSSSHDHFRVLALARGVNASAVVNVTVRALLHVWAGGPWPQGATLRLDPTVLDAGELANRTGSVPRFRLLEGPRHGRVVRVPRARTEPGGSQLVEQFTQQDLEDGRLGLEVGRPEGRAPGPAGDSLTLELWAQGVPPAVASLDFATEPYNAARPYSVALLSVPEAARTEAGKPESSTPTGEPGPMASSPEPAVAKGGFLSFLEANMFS
method.summary: SPR ProteOn XPR36; parental M4-3/ML2 IgG KD against variant IgG KD
// reported Fold increase over parent (IgG KD) for each item listed
Dear colleague, please return just the value in fold, with no unit written.

Solved entries:
M4-3(C1)/ML2(G3) IgG (antibody, V domains shown, Human IgG1 format, produced in HEK293-EBNA) VH: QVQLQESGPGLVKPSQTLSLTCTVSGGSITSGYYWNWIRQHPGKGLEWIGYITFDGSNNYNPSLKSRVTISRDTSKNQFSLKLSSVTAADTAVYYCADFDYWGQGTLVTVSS VL: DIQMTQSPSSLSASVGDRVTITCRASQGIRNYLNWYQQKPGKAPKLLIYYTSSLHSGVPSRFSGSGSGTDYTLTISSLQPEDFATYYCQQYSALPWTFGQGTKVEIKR :: 28.6
M4-3(B7)/ML2 IgG (antibody, V domains shown, Human IgG1 format, purified from mammalian production) VH: QVQLQESGPGLVKPSQTLSLTCTVSGGSITSGYYWNWIRQHPGKGLEWIGYITFDGINNYNPSLKSRVTISRDTSKNQFSLKLSSVTAADTAVYYCADFDYWGQGTLVTVSS VL: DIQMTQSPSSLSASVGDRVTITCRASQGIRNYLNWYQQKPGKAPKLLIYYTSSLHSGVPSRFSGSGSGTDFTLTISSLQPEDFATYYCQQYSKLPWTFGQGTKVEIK :: 4

// moving on: another record for Fold increase over parent (IgG KD)
Exercise: Entry under review: M4-3/ML2(C5/G3) IgG (antibody, V domains shown, Human IgG1 format, purified from mammalian production) VH: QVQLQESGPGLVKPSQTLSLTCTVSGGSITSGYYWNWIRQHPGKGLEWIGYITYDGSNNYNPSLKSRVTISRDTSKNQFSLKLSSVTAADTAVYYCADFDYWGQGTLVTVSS VL: DIQMTQSPSSLSASVGDRVTITCRASRGIREYLNWYQQKPGKAPKLLIYYTGSLHSGVPSRFSGSGSGTDFTLTISSLQPEDFATYYCQQYSALPWTFGQGTKVEIK . Reported Fold increase over parent (IgG KD)?
Solution: 2.9
